Test system: CCRF-CEM leukemia cells
experiment: CCRF-CEM ASNase cell proliferation assay, phenotypic assay for cellular inhibition of GCN2
Format: cell-based
appliedConditions: Homo sapiens; ASNase treated CCRF-CEM cells, 1 mU/mL ASNase, 72 h
pIC50: −log10 of the molar value.
readoutType: pIC50

[[record]]
smilesrepresentation = "CNc1cc2nc(C)c(-c3cc(NS(=O)(=O)c4cc(Cl)cnc4OC)ccc3F)cc2cn1"
observedresult = "≥ 7.00"

[[record]]
smilesrepresentation = "COc1ncc(Cl)cc1S(=O)(=O)Nc1cccc(-c2cnc3nc(Nc4cnn(C)c4)ncc3c2)c1"
observedresult = "≥ 7.00"

[[record]]
smilesrepresentation = "CNc1ncc2cc(-c3cccc(NS(=O)(=O)c4cc(Cl)cnc4OC)c3F)c(NCCOC)nc2n1"
observedresult = "≥ 7.00"

[[record]]
smilesrepresentation = "CCNc1ncc2cc(-c3cccc(NS(=O)(=O)c4cc(Cl)cnc4OC)c3F)c(NC)nc2n1"
observedresult = "≥ 7.00"


###

pIC50, GCN2 kinase (Homo sapiens (Human)), per-entry values.
pIC50: −log10 of the molar value.
readoutType: pIC50

[[record]]
smilesrepresentation = "CNc1cc2nc(C)c(-c3cccc(NS(=O)(=O)c4cc(Cl)cnc4OC)c3F)cc2cn1"
observedresult = "≥ 7.00"

[[record]]
smilesrepresentation = "CNc1ncc2cc(-c3cccc(NS(=O)(=O)c4cc(Cl)cc(CO)c4Cl)c3F)c(NC)nc2n1"
observedresult = "≥ 7.00"

[[record]]
smilesrepresentation = "CNc1ncc2cc(-c3cccc(NS(=O)(=O)c4cc(F)c(Br)cc4F)c3F)ccc2n1"
observedresult = "6.30 to 7.00"

[[record]]
smilesrepresentation = "CNCCNc1nc2nc(NC)ncc2cc1-c1cccc(NS(=O)(=O)c2cc(Cl)cnc2OC)c1F"
observedresult = "6.30 to 7.00"

[[record]]
smilesrepresentation = "CNc1cc2ncc(-c3cc(NS(=O)(=O)c4cc(Cl)cnc4OC)ccc3F)cc2cn1"
observedresult = "6.30 to 7.00"

[[record]]
smilesrepresentation = "COc1ncc(Cl)cc1S(=O)(=O)Nc1cccc(-c2cnc3cc(N)ncc3c2)c1F"
observedresult = "≥ 7.00"

[[record]]
smilesrepresentation = "CNc1cnc(OC)c(S(=O)(=O)Nc2cccc(-c3cc4cnc(NC)cc4nc3C)c2F)c1"
observedresult = "≥ 7.00"

[[record]]
smilesrepresentation = "CNc1cc2nc(C)c(-c3cc(NS(=O)(=O)c4cc(Cl)cnc4OC)c(F)cc3F)cc2cn1"
observedresult = "6.30 to 7.00"

[[record]]
smilesrepresentation = "CNc1ncc2cc(-c3cccc(NS(=O)(=O)c4cc(Cl)cnc4OC)c3C#N)c(C)nc2n1"
observedresult = "≥ 7.00"


###

IC50, PERK kinase (Homo sapiens (Human)), per-entry values.
readoutType: IC50

[[record]]
molecule = "CNc1ncc2cc(-c3cc(F)cc(NS(=O)(=O)c4cc(Cl)cnc4OC)c3)c(N)nc2n1 [Example 63]"
observedresult = "≤ 0.1 µM"

[[record]]
molecule = "CNc1nc2nc(N)ncc2cc1-c1cccc(NS(=O)(=O)c2cc(Cl)cnc2OC)c1F [Example 109]"
observedresult = "0.1 to 0.5 µM"

[[record]]
molecule = "COc1nc2nc(N)ncc2cc1-c1ccnc(NS(=O)(=O)c2cc(Cl)cnc2OC)c1F [Example 135]"
observedresult = "0.1 to 0.5 µM"

[[record]]
molecule = "COc1ncc(Cl)cc1S(=O)(=O)Nc1cccc(-c2cnc3cc(N)ncc3c2)c1F [Example 85]"
observedresult = "≤ 0.1 µM"

[[record]]
molecule = "CNc1cc2nc(C)c(-c3cccc(NS(=O)(=O)c4cc(Cl)cnc4OC)c3F)cc2cn1 [Example 31]"
observedresult = "≤ 0.1 µM"

[[record]]
molecule = "CNc1ncc2cc(-c3cccc(NS(=O)(=O)c4cc(Cl)cnc4OC)c3F)c(NCCOC)nc2n1 [Example 100]"
observedresult = "0.1 to 0.5 µM"

[[record]]
molecule = "COc1ncc(Cl)cc1S(=O)(=O)Nc1cccc(-c2cnc3nc(Nc4cnn(C)c4)ncc3c2)c1 [Example 59]"
observedresult = "0.1 to 0.5 µM"

